Test: soluble on expression in E. coli; label from the status in PepcDB or PDB records
PROPERTY NAME: soluble on expression in E. coli

{"SEQ": "MTNDDKCTSFFDKNYQTPEFIENKKRQAQQGRRRFLKSAAGMGALASLPALSVSAKAQTSLNELLKTLVKTDPWLTLDATLNQLLPSSPTGPSASEIRATAYLYQVMTVQPTEQDEKDFILKGVGWLNGYANSEKSANFAQLSFADKEQLLRGISNSTAGQNWLNTLLGYIFQAMLSPASYGGNPDGIGWAWLEHQAGFPMPEKGQRYFELPTRARIDLISRVNYDAKRLASSRNKSHQGTKKS", "RESULT": "not soluble"}
{"SEQ": "MGSDKIHHHHHHMKMETGKLLMELSNLDGPSGYETNVVSYIKSVIEPFVDEAKTTRHGSLIGYKKGKGIGKLAFFAHVDEIGFVVSKVEGQFARLEPVGGVDPKVVYASKVRIYTKNGIERGVIGMLAPHLQDSESRKKVLTYDEIFVDLSLCERDVRVGDIAVIDQTAFETNGKVVGKALDNRASCGVLVKVLEFLKRYDHPWDVYVVFSVQEETGCLGALTGAYEINPDAAIVMDVTFASEPPFSDHIELGKGPVIGLGPVVDRNLVQKIIEIAKKHNVSLQEEAVGGRSGTETDFVQLVRNGVRTSLISIPLKYMHTPVEMVDPRDVEELARLLSLVAVELEV", "RESULT": "not soluble"}
{"SEQ": "GMTAVFRNTVLVRFKHCDAAGIVFYPRYFEMLNDFIEDWFAQALDWPFDAMHGAGQAGVPTADLHCRFVAPSRLGETLTRELRVVKLGQSSFTVQVRFMGPDSGLRLEVTQRLVCVDTDKIAPRPLPDPVRQAMATYVDETLAATGSPGL", "RESULT": "soluble"}
{"SEQ": "KAEMRHMENKVLESELRQRAVVEASLLETQGRLLEQLESAPEAIICLREDQRIRFANEAACKLFKRSLEQLKRS", "RESULT": "not soluble"}
{"SEQ": "MGHHHHHHSHDDDDLNTIEFKILAYYTRHHVFKSTPALFSPKLLRTRSLSQRGLGNCSANESWTEVSWPCRNSQSSEKAINLGKKKSSWKAFFGVVEKEDSQSTPAKVSAQGQRTLEYQDSHSQQWSRCLSNVEQCLEHEAVDPKVISIANRVAEIVYSWPPPQATQAGGFKSKEIFVTEGLSFQLQGHVPVASSSKKDEEEQILAKIVELLKYSGDQLERKLKKDKALMGHFQDGLSYSVFKTITDQVLMGVDPRGESEVKAQGFKAALVIDVTAKLTAIDNHPMNRVLGFGTKYLKENFSPWIQQHGGWEKILGISHEEVD", "RESULT": "not soluble"}
{"SEQ": "MGSDKIHHHHHHMMKIYKKNIDHYIMLSFEINEMNIPFTGQIVVKEDDEVTREVILGRAKKIHEWLVLVDHIFSPFRTNSELTLYNHRKIEMTGTNLLFQEVFALSIWAKEMTQGLFSANFVGKYNPTGAVKGWAIEKAERIQLEPLLSDPNFVAVNLNGGGDMQFSSSDKHNWQWEIGIVNPFDNKKVISCFRMKNGAIATSGTSQRGEHLFNSSTGRAIPEKNFNVISSSVIGSELTYSDIWATAIATTTINDHSWLKRLSGSGLRISYNKKSERWLNHEIIDQKELIYA", "RESULT": "not soluble"}
{"SEQ": "MVHGKLKEAAEVTGSVSLEALEEVQVGENIEVGVGIDELVNAEAFAYDFTLNYDENAFEYVEAISDDGVFVNAKKIEDGKVRVLVSSLTGEPLPAKEVLAKVVLRAEAKTEGSNLSVTNSSVGDGEGLVHEIAGTEKTVNIIEGTSPEIVVNPVRDFKASEINKKNVTVTWTEPETTEGLEGYILYKDGKKVAEIGKDETSYTFKKLNRHTIYNFKIAAKYSNGEVSSKESLTLRTAR", "RESULT": "soluble"}
{"SEQ": "MAHHHHHHMGCKSSAEAKPSETRSPSARLSRNSVTTPPDRMDTAHRLHPAAREEVDLDPENVAGAEHISPSVVTARSSSRVAAVTLHGICGYTHNGVPAYSNGTSNTWPWMKNFCEGIFMGYQWQCVEFARRWLWVTHRLLLPKRSCAYCFSSCTYAYRLKKDSSLISQRARAAMHKAAAETGAGSPSSSKEVNAATEARHLGPCTSRDTWEKVPAKFVKQGSLVPPVADSLIVYPISWGSPWGHIGVITAVDLDRHRVYVADQNRYFHDWNG", "RESULT": "soluble"}
{"SEQ": "MGSDKIHHHHHHMVNGNITQLSDMQIPENWGAYLAEKSTQNNAFFTSGVVQNVPQIAALLGAGKVANMPLFKPLADDDPQVPDDTTDLLVNKITTDLAQARKLGFDQAWSATDLSAELSGADPLSAIGDQVSDYWSHVYEKLLLQTLTGVFSSTSMKGVNQLDTTTDKTDTTFSLKNFNKARFLLGDRYKDLAIVAVHSDILRQLQDANLVDAKNNSTFVLNGNSNVPTAIQTPDAGDKIKGVQIVVDDSLPVDNGKYTSYLFAQGAVGYSELPVTNAVETNRDPLKNHGIDYLVNRRRFVFAPQGLSWNESNFVTKNPGKTYPSMTDLADGTNWSKVYDHKLIPMAQFVTSADAIVPSTTADPQTGK", "RESULT": "not soluble"}
{"SEQ": "METALVSIIMPMYNAGKFLSKSIESVLEQTYQNWELLLIDDGSKDDSIDIALAFMEKDSRIFLLKNEQNMGIAKTRNKGIEASKGQYIAFLDSDDLWLPNKLEVQVKWMEEKKLLFTCSSYFVCNENGNITHERNFSEGPQTYQDLLKTNTIGCLTVVVESNLLKRHLMPDLKHEDYATWLNILKEINTVYFINEKLAIYRKLTTSTSSNKWNTISWVWKILRQNEQFSVIKSSFYLMRFLFYTTFKYAKNELEHHHHHH", "RESULT": "soluble"}
{"SEQ": "GPHSLRYFVTAVSRPGLGEPRFISVGYVDNTEFVRFDSDAENPRYEPRARWMEQEGPEYWERETQKAKGNEQSFRVDLRTLLGYYNQSKGGSHTIQVISGCEVGSDGRLLRGYQQYAYDGCDYIALNEDLKTWTAADMAALITKHKWEQAGEAERLRAYLEGTCVEWLRRYLKNGNATLLRTDSPKAHVTHHSRPEDKVTLRCWALGFYPADITLTWQLNGEELIQDMELVETRPAGDGTFQKWASVVVPLGKEQYYTCHVYHQGLPEPLTLRWEPPPST", "RESULT": "soluble"}
